# System Under Test: the molecule itself
# Procedure Details: self-dimerization, electrospray mass spectrometry, alanine scan
Endpoint Name: fold weakening of self-binding against EFLIVKS (fold)

{"columns": ["Protein", "Experimental Value"],
 "data": [
  ["EFAIVKS (Alanine scan analog of EFLIVKS (L3A))", 9.7],
  ["EFLIVAS (Alanine scan analog of EFLIVKS (K6A))", 6],
  ["EFLIAKS (Alanine scan analog of EFLIVKS (V5A))", 10],
  ["EALIVKS (Alanine scan analog of EFLIVKS (F2A))", 5.4],
  ["EFLAVKS (Alanine scan analog of EFLIVKS (I4A))", 5.4]
]}
